Recorded TGI for the following compounds
System: SF-539 CNS
Assay: NCI tumour cell line growth inhibition, 48 h

compound: NS(=O)(=O)c1ccc(-c2ccc3c(NC(=O)C4CC4)n[nH]c3c2)cc1
tested_system: SF-539 CNS
TGI: > 25 µM

compound: CNC(=S)/N=C(\N)N(C)C
tested_system: SF-539 CNS
TGI: > 100 µM

compound: O=C(NCP(=O)(c1ccccc1)c1ccccc1)OCc1ccccc1
tested_system: SF-539 CNS
TGI: > 100 µM

compound: COC(=O)Nc1nc2ccc(C3(c4ccc(F)cc4)OCCO3)cc2[nH]1
tested_system: SF-539 CNS
TGI: 0.52 µM

compound: NNC(=S)N/N=C(/C(=O)Nc1ccc(Cl)c(Cl)c1)C(C1OC(=O)c2ccccc21)[N+](=O)[O-] (centres undefined)
tested_system: SF-539 CNS
TGI: > 100 µM

compound: CC(=O)O[C@H]1C(=O)[C@@]2(C)C(C(OC(=O)c3ccccc3)[C@]3(O)CC(OC(=O)C(O)C(NC(=O)c4ccc(C(F)(F)F)cc4)c4ccccc4)C(C)=C1C3(C)C)[C@]1(OC(C)=O)CO[C@@H]1C[C@@H]2O (some centres undefined)
tested_system: SF-539 CNS
TGI: 0.65 µM

compound: CC1CC2=C(S(=O)(=O)c3ccccc3)CC(S(=O)(=O)c3ccccc3)(S(=O)(=O)c3ccccc3)CC21 (centres undefined)
tested_system: SF-539 CNS
TGI: > 100 µM

compound: O=C(O)CNS(=O)(=O)c1ccc(NC(=O)c2ccc([N+](=O)[O-])cc2)cc1
tested_system: SF-539 CNS
TGI: > 100 µM

compound: COc1cc2cc3c4cc(OC)c(OC)cc4cc[n+]3c(C)c2cc1OC (tested in a mixture with another compound)
tested_system: SF-539 CNS
TGI: > 100 µM

----------
System: RXF 393 renal
Experiment: NCI tumour cell line growth inhibition, 48 h
Recorded TGI for the following compounds

compound: Clc1cc(Cl)c2ns[s+]c2c1Cl
TGI: > 100 µM

compound: Cc1ccc([N+](=O)[O-])c2c(NCCC[N+](C)(C)[O-])c3ccccc3nc12
TGI: 3.02 µM

compound: c1cnn(CN(Cn2cccn2)Cn2cccn2)c1
TGI: > 100 µM

compound: CCO/C=N\C1=C(C#N)SC2=N/C(=C\c3ccc(OC)cc3)C(=O)N21
TGI: > 100 µM

compound: COc1cc(/C=C/c2ccc(OC)c(O)c2)cc(OC)c1
TGI: 3.88 µM

compound: CC(C)c1c(O)c(O)c2c(c1O)C(=O)C(O)=C1C(C)(C)CCC[C@@]12C
TGI: 9.24 µM

compound: CC(=O)ONC(C(=O)C(C)(C)C)C(=O)C(C)(C)C
TGI: > 100 µM

compound: COc1cc2cc3c4cc(OC)c(OC)cc4cc[n+]3c(C)c2cc1OC (tested in a mixture with another compound)
TGI: > 100 µM

compound: O=C(/C=C/c1ccc(Cl)c(Cl)c1)c1ccc2ccccc2c1
TGI: > 100 µM

----------
Recorded GI50 for the following compounds
Test system: SF-295 CNS
Test: NCI tumour cell line growth inhibition, 48 h

compound: O=C(Nc1n[nH]c2cc(-c3ccccc3)ccc12)C1CC1
GI50: 9.07 µM

compound: Cc1ccc(NC(=O)c2cccc(C(C)(C)C#N)c2)cc1Nc1ccc2ncn(C)c(=O)c2c1
GI50: 6.99 µM

compound: Cc1cc2ncnn2cc1Nc1ncc2c(n1)n(C1CCOCC1)c(=O)n2C
GI50: 4.98 µM

compound: CN1CCN(CCCNc2nc3ccc(Oc4ccc(NC(=O)Nc5cc(C(F)(F)F)ccc5F)cc4)cc3[nH]2)CC1
GI50: 3.67 µM

compound: S=c1ssc(N2CCOCC2)c1Cl
GI50: 25.8 µM

compound: COc1ccc(-c2nc3ccccn3c2/C=C/C(=O)c2cc(OC)c(OC)c(OC)c2)cc1OC
GI50: 1.85 µM

compound: Cc1cc(C(=O)Nc2ccc3cc(CN4CCOCC4)ccc3n2)c(C)n1-c1ccccc1
GI50: 1.99 µM

compound: CCNCCNc1cc(-c2ccc(C(F)(F)F)cc2)c(C#N)c2nc3ccccc3n12
GI50: 1.83 µM

compound: O=c1cc(NCC(O)CN2CCCC2)n(Cc2ccccc2)c(=O)n1Cc1ccccc1 (stereo unspecified)
GI50: 46.6 µM

compound: COc1ccc2[nH]c3c4[nH]c5ccc(OC)cc5c4c4c(c3c2c1)C(=O)NC4=O
GI50: > 15.7 µM

compound: COc1cc2ncnc(-n3ncc4cc(NC(=O)Nc5ccccc5)ccc43)c2cc1OC
GI50: 0.73 µM

compound: COc1cc2c(cc1OCCCCC(=O)Nc1cc3c4ccccc4ccc3c3ccccc13)N=C[C@@H]1CCCN1C2=O
GI50: 6.98 µM

compound: CC(C)c1ccc(-c2cc(-c3cn[nH]c3-c3ccccn3)ccn2)cc1
GI50: 7.68 µM

compound: Cc1ccc(N=C/C=C(\Nc2ccc(C)cc2)c2ccc(Cl)cc2)cc1
GI50: 5.55 µM

compound: O=C1c2cccnc2-c2nc(-c3ccc(Cl)cc3)cc3c2c1nc1ccccc13
GI50: 22.9 µM

compound: COc1ccc(-c2[nH]c3ccc(OC)cc3c2/C=C(\C#N)S(=O)(=O)c2ccccc2)cc1
GI50: 0.709 µM
